study target: HLA-A*68:02
protocol: IEDB peptide-MHC binding, purified MHC/competitive/radioactivity; bounds were set here for any values at or beyond the usual limits of such assays
measurement context: source organism: Influenza A virus
The following sequences are listed with their measured pIC50 values.
Scale explanation: pIC50 corresponds to minus log10 of a concentration expressed in moles per litre.

Worked set:
[[record]]
item_sequence = "VNPTLLFLKV"
measurement_name = "pIC50"
measured_value = 7.62

[[record]]
item_sequence = "NVMGMIGV"
measurement_name = "pIC50"
measured_value = 7.01

[[record]]
item_sequence = "WSYNAELLVA"
measurement_name = "pIC50"
measured_value = 5.79

[[record]]
item_sequence = "MQALQLLLEV"
measurement_name = "pIC50"
measured_value = 6.21

[[record]]
item_sequence = "NVMGMIGI"
measurement_name = "pIC50"
measured_value = 6.73


## Input Which pIC50 value belongs to `NTVSSFQV` ?
## Output 6.25

## Input Which pIC50 value belongs to `GADINLMPI` ?
## Output 5.36

## Input Which pIC50 value belongs to `WILWISFAIS` ?
## Output 5.60

## Input Which pIC50 value belongs to `MQIAILVTTV` ?
## Output 6.89

## Input Which pIC50 value belongs to `GTSGVESAV` ?
## Output 6.17

## Input Which pIC50 value belongs to `YNAELLVLL` ?
## Output 7.36

----------
study target: HLA-A*02:02
protocol: IEDB peptide-MHC binding, cellular MHC/competitive/fluorescence; bounds were set here for any values at or beyond the usual limits of such assays
measurement context: source organism: Vaccinia virus WR
measurement name: pIC50
Scale explanation: pIC50 corresponds to minus log10 of a concentration expressed in moles per litre.

Worked set:
[[record]]
item_sequence = "MQLKIDKLT"
measured_value = 5.12

[[record]]
item_sequence = "AARLKRSAT"
measured_value = 4.90

[[record]]
item_sequence = "LQQNNSFII"
measured_value = 4.93


Next item in the queue.
## Input Which pIC50 value belongs to `CLEAKTHFST` ?
## Output 4.91

----------
study target: HLA-A*02:03
protocol: IEDB peptide-MHC binding, cellular MHC/competitive/fluorescence; bounds were set here for any values at or beyond the usual limits of such assays
measurement context: source organism: Vaccinia virus WR
measurement name: pIC50
Scale explanation: pIC50 corresponds to minus log10 of a concentration expressed in moles per litre.

Worked set:
[[record]]
item_sequence = "DVEKRILNTI"
measurement_name = "pIC50"
measured_value = 4.90

[[record]]
item_sequence = "IAGLKIEEI"
measurement_name = "pIC50"
measured_value = 5.22

[[record]]
item_sequence = "PTPKKMNIVT"
measurement_name = "pIC50"
measured_value = 4.25

[[record]]
item_sequence = "LTGNNTITT"
measurement_name = "pIC50"
measured_value = 5.25

[[record]]
item_sequence = "QTLISLNSM"
measurement_name = "pIC50"
measured_value = 4.41

[[record]]
item_sequence = "YALEPRKEI"
measurement_name = "pIC50"
measured_value = 5.15


## Input Request - read-out pIC50 | tested on HLA-A*02:03 | sequence `CLEAKTHFST`
## Output 4.96

## Input Request - read-out pIC50 | tested on HLA-A*02:03 | sequence `CVRNLEELTT`
## Output 4.82

## Input Request - read-out pIC50 | tested on HLA-A*02:03 | sequence `NVDVGCLLT`
## Output 4.85

## Input Request - read-out pIC50 | tested on HLA-A*02:03 | sequence `HVLLPFYET`
## Output 4.73

## Input Request - read-out pIC50 | tested on HLA-A*02:03 | sequence `PLTGNNTITT`
## Output 4.53

## Input Request - read-out pIC50 | tested on HLA-A*02:03 | sequence `GVLHTKFWI`
## Output 4.91

## Input Request - read-out pIC50 | tested on HLA-A*02:03 | sequence `NTGMGMYYPT`
## Output 4.68

## Input Request - read-out pIC50 | tested on HLA-A*02:03 | sequence `DVKVLAARL`
## Output 4.97

## Input Request - read-out pIC50 | tested on HLA-A*02:03 | sequence `NTLIQYRQQL`
## Output 4.99

## Input Request - read-out pIC50 | tested on HLA-A*02:03 | sequence `IIRVTTELNI`
## Output 5.06

## Input Request - read-out pIC50 | tested on HLA-A*02:03 | sequence `VVIVENDNVI`
## Output 4.99
